measurement protocol: Human HepG2 cell viability assay in 384 well format
Type: toxicity, cell-based
Design: dose 125 nL, time 70.5 hour; concentration not given beside the values
settings: HepG2 cells, read-out: Inhibition
Can you tell me cytotoxicity at 70.5 h for the items I'm about to list?
One number for each entry, in %.

See these solved cases before continuing.
{"columns": ["compound", "cytotoxicity at 70.5 h, %"],
 "data": [
  ["CCN1CCc2onc(CNc3ncccn3)c2C1", 8.16],
  ["Cc1ccc(NC2CCN(C(=O)CCNS(C)(=O)=O)CC2)nn1", -19],
  ["NC(=O)COc1ccc(CN2CCNC(C(=O)NC3CC3)C2)cc1Cl (configuration not stated)", -10.1],
  ["Fc1cccc(O[C@@H]2C[C@H]3CN(Cc4ccncc4)CCN3C2)c1", -15.6],
  ["CC(CN1CCOC1=O)NC(=O)c1ccccc1Oc1ccccc1 (configuration not stated)", 27.1]
]}

Please state, for each entry, its recorded cytotoxicity at 70.5 h.
1. Cc1cc(C)n(CNc2nonc2C(N)=O)n1
2. Cc1ccc(F)cc1S(=O)(=O)Nc1ccc2c(C(=O)O)c[nH]c2c1
3. CCc1cccnc1NCc1cnc(N2CCOCC2)nc1
4. O=C(CCN1CCCCC1)Nc1c2c(cc3c1CCC3)CCC2

[36, 1.03, 20.6, -1.77]
